procedureDetails: folding stability dG unfold from chymotrypsin proteolysis; higher = more stable
Please assign a class to every record based on measured folding stability dG unfold, with ranges lower segment = under 2 kcal/mol, middle segment = from 2 kcal/mol up to 4 kcal/mol, upper segment = 4 kcal/mol and over

Incoming: Which folding stability dG unfold band matches SAGGSAGGSAGPEWYVVMRVENPGTGKEVHFIGPWDDFKEKLPPSNVKMEWHLIPADALKSAGGSAGGSAGG [r11_334_TrROS] ?
Outgoing: lower segment

Incoming: Which folding stability dG unfold band matches SAMVLRIKVEVNGETKEIEIELPPNAKIEKKDGELTIYVKNPETGKIFKFKFKKNAKIVEVEEVDPEDLSAG [r14_313_TrROS_Hall] ?
Outgoing: upper segment

Incoming: Which folding stability dG unfold band matches SAGGSAGGGSMDPKVETEEFEEPGREVKREKLPDGLVVTEYTEPDGPKSTVVTDPETGKVTVIGSAGGSAGG [r6_159_JUSTAS] ?
Outgoing: lower segment

Incoming: Which folding stability dG unfold band matches SAGGGVTITASPDGTVTITIGGKPITVPVHPGATLEFRVEPTPDGRPAVTITWTSPDGTPYTFTFTGSAGGS [r16_231_TrMRF] ?
Outgoing: upper segment

Incoming: Which folding stability dG unfold band matches SAGGSAGGSAGAFVGYRDEGGRYWLRTPEGELELDSEEDALEWADFLRANGIPLLSEPRPSAGGSAGGSAGG [r17_35_TrMRF] ?
Outgoing: lower segment

Incoming: Which folding stability dG unfold band matches SAGGSAGGSAGGLVLRGPNDSLLFVLYNPDTGLAVFYNPATNQLLVVNLPLPKPKPSELLSAGGSAGGSAGG [r7_383_TrMRF] ?
Outgoing: middle segment

Incoming: Which folding stability dG unfold band matches SAGGMLRVTATVGYAPDDPAVELAKKIAEALTPPGMKVRMKAKVTPLADGTYRIDIEVEIRPPGEPGSAGGS [r16_128_TrMRF] ?
Outgoing: middle segment

Incoming: Which folding stability dG unfold band matches SAGGDVGLEEKAREIAEELREEISKKLGVNVKVTEVKVEYDPKTGKYTVTVTITLPGGETITITVPESAGGS [r8_372_JUSTAS] ?
Outgoing: upper segment

Incoming: Which folding stability dG unfold band matches SAGGSAGGKPKTYIILVIEDPENDKYLALLFDENGKLIGTAPFKSIDELLEKLPKNVKVIVLPASAGGSAGG [r6_492_TrMRF] ?
Outgoing: upper segment

Incoming: Which folding stability dG unfold band matches SAGGSAGGSMTIVIKVKSKEDALEAAKALLAELGIEEGAEVKKIEVEEVDPENKEYYVRIEVKSAGGSAGGS [r12_999_TrROS_Hall] ?
Outgoing: lower segment
